Tested on: U2OS
Assay: Multiplex assay against U2OS
Assay type: toxicity, cell-based
Conditions: human, 24 h, 1 µM, compound concentration 1 uM, replicate 2
ENDPOINT: Population Healthy Nuclei (%)
Express the result in % but write the number alone.

// solved cases for Population Healthy Nuclei (%) follow
> print(dat)
                                   compound  recorded.value
1  CCCS(=O)(=O)Nc1ccc(F)c(C(=O)c2c[nH]c3ncc(Cl)cc23)c1F [PLX-4720]              88
2  O=C1NC(=O)C(c2cnc3ccccn23)=C1c1cn2c3c(cc(F)cc13)CN(C(=O)N1CCCCC1)CC2 [LY-2090314]              87
3  Cl.O=C(c1ccc(Nc2nccc(-c3cc4ccccc4s3)n2)cc1)N1CCC(N2CCCC2)CC1              68
4  COc1cc(N2CCN(C)CC2)ccc1Nc1ncc2c(n1)N(C)c1ccccc1C(=O)N2C              75

Field Population Healthy Nuclei (%) (entry CCN1CCN(c2ccc(Nc3cc(N(C)C(=O)Nc4c(Cl)c(OC)cc(OC)c4Cl)ncn3)cc2)CC1 [INFIGRATINIB] ) reads 39

* * *

Test system: Fibroblast
Assay: Multiplex assay against human fibroblast
Format: toxicity, cell-based
Conditions: 24 h, 1 µM, compound concentration 1 uM, replicate 2
ENDPOINT: Total Cell Count
Kindly provide the number alone.

Examples from the recorded data:
> print(dat)
                               smiles.input  system.under.test  recorded.value
1  Cn1nc(C(F)(F)F)cc1-c1cnc(N2CCc3cc(S(=O)(=O)Nc4c(F)cc(Cl)cc4F)cc(N4CCCC4=O)c32)nc1         Fibroblast              66
2  COc1cc(N2CCN(C)CC2)ccc1Nc1ncc2c(n1)N(C)c1ccccc1C(=O)N2C         Fibroblast             101
3  C=C1/C(=C\C=C2/CCC[C@]3(C)[C@@H]([C@H](C)/C=C/[C@H](C)C(C)C)CC[C@@H]23)C[C@@H](O)C[C@@H]1O         Fibroblast             157

Entry CCc1cccc(CC)c1NC(=O)c1nn(C)c2c1CCc1cnc(Nc3ccc(N4CCN(C)CC4)cc3OC)nc1-2 — recorded Total Cell Count = 63

* * *

Tested on: Fibroblast
Test: Multiplex assay against human fibroblast
Type: toxicity, cell-based
Settings: 12 h, 10 µM, compound concentration 10 uM, replicate 1
Population Hoechst High Intensity Objects (%) values by entry

Consider the worked cases shown below.
> print(dat)
                               smiles.input  system.under.test  recorded.value
1  Cc1ccc(C(=O)Nc2cccc(C(F)(F)F)c2)cc1Nc1nc(-c2cccnc2)nc2c1cnn2C         Fibroblast             13%
2  COC(=N)c1nc2ccc3ncnc(Nc4ccc(OC)cc4F)c3c2s1         Fibroblast             11%
3  CCCn1c(=O)c2[nH]c(-c3cnn(Cc4cccc(C(F)(F)F)c4)c3)nc2n(CC)c1=O         Fibroblast             31%
4  C=C1/C(=C\C=C2/CCC[C@]3(C)[C@@H]([C@H](C)/C=C/[C@H](C)C(C)C)CC[C@@H]23)C[C@@H](O)C[C@@H]1O         Fibroblast             11%
5  CNc1cc(Oc2cc(C(=O)Nc3cc(N4CCN(C)CC4)cc(C(F)(F)F)c3)ccc2C)ncn1         Fibroblast             18%
6  O=C(Nc1ccc(-c2ccnc(Nc3ccc(N4CCOCC4)cc3)n2)cc1)[C@@H]1CCCN1         Fibroblast             13%

Summary for this compound, COc1ccc(S(=O)(=O)N(CCO)c2ccccc2CN(C)C/C=C/c2ccc(Cl)cc2)cc1.O=P(O)(O)O : Population Hoechst High Intensity Objects (%) is 10%

Given item Cc1ccc2nc(NCCN)c3ncc(C)n3c2c1.O=C(O)C(F)(F)F.O=C(O)C(F)(F)F , the value recorded as its Population Hoechst High Intensity Objects (%) is 21%

Record COc1cccc2cc(-c3nc([C@H]4CC[C@H](C(=O)O)CC4)n4ncnc(N)c34)[nH]c12 . Reported Population Hoechst High Intensity Objects (%): 12%

Sample O=C1NC(=O)C(c2cnc3ccccn23)=C1c1cn2c3c(cc(F)cc13)CN(C(=O)N1CCCCC1)CC2 ; Population Hoechst High Intensity Objects (%) observed: 6%

# compound Cn1nc(C(F)(F)F)cc1-c1cnc(N2CCc3cc(S(=O)(=O)Nc4c(F)cc(Cl)cc4F)cc(N4CCCC4=O)c32)nc1 ; its Population Hoechst High Intensity Objects (%) = 7%

* * *

Test system: HEK-293T
Experiment: Multiplex assay against HEK293T
Assay type: toxicity, cell-based
Details: human, 12 h, 10 µM, compound concentration 10 uM, replicate 1
ENDPOINT: Population Membrane Permeable-Phenotype (%)
State the answer as a number, implicitly in %.

MOLECULE	SYSTEM UNDER TEST	RECORDED VALUE
CN(C)C(=O)C(CCN1CCC(O)(c2ccc(Cl)cc2)CC1)(c1ccccc1)c1ccccc1.Cl [LOPERAMIDE HYDROCHLORIDE]	HEK-293T	0
Cn1nc(C(F)(F)F)cc1-c1cnc(N2CCc3cc(S(=O)(=O)Nc4c(F)cc(Cl)cc4F)cc(N4CCCC4=O)c32)nc1	HEK-293T	2
Cl.Oc1ccc2c3c1O[C@H]1c4[nH]c5c(c4C[C@@]4(O)[C@@H](C2)N(CC2CC2)CC[C@]314)C[C@@]1(O)[C@H]2Cc3ccc(O)c4c3[C@@]1(CCN2CC1CC1)[C@H]5O4	HEK-293T	3

So, CNC(=O)c1ccc(Nc2nc(OC3CCCC3)c3c(-c4ccc5nc(C)oc5c4)c[nH]c3n2)c(OC)c1 ? Its Population Membrane Permeable-Phenotype (%) was 22

Documented Population Membrane Permeable-Phenotype (%) of CCCS(=O)(=O)Nc1ccc(F)c(C(=O)c2c[nH]c3ncc(Cl)cc23)c1F : 3

In plain terms, CCn1cc(-c2ccnc3[nH]c(-c4cccc(CN(C)C)c4)cc23)c(-c2ccc(NC(=O)N(C)C)cc2)n1 has a documented Population Membrane Permeable-Phenotype (%) of 16

Value of measured Population Membrane Permeable-Phenotype (%) for the entry CN1C2CCC1CC(OC(c1ccc(F)cc1)c1ccc(F)cc1)C2.Cl (configuration not stated) : 1

* * *

System: HEK-293T
Experiment: Multiplex assay against HEK293T
Assay type: toxicity, cell-based
Conditions: human, 48 h, 10 µM, compound concentration 10 uM, replicate 2
Decide using Population Healthy Nuclei (%): a value greater than or equal to 10% is yes (1), a smaller one is no (0).

Would you please look over these solved cases?
> print(dat)
                                   compound  system.under.test  qualitative.label
1  CCOC(=O)c1c(C)[nH]c2ccc3c(c12)CN1CCc2cc(OC)ccc2C1O3 (stereo not drawn)           HEK-293T            yes (1)
2  Cl.O=C(c1ccc(Nc2nccc(-c3cc4ccccc4s3)n2)cc1)N1CCC(N2CCCC2)CC1           HEK-293T             no (0)
3  CCn1c(=O)c(-c2ccc(-c3cncs3)cc2Cl)cc2cnc(Nc3ccc(N4CCN(C)CC4)cc3)nc21           HEK-293T            yes (1)
4  CN(C)C(=O)C(CCN1CCC(O)(c2ccc(Cl)cc2)CC1)(c1ccccc1)c1ccccc1.Cl [LOPERAMIDE HYDROCHLORIDE]           HEK-293T             no (0)
5  CCN1CCN(Cc2ccc(Nc3ncc(F)c(-c4cc(F)c5nc(C)n(C(C)C)c5c4)n3)nc2)CC1.CS(=O)(=O)O           HEK-293T            yes (1)

Check if Population Healthy Nuclei (%) >= 10% (inclusive). Item: O=C(Nc1ccc(Cl)cc1)Nc1cccc(-c2cccc(N3CCCC3)n2)c1
yes (1)

Textbook exercise: given the entry CCOc1cc2ncc(C#N)c(Nc3ccc(OCc4ccccn4)c(Cl)c3)c2cc1NC(=O)/C=C/CN(C)C [NERATINIB] , state whether its Population Healthy Nuclei (%) is greater than or equal to 10%.
yes (1)

hey, is Population Healthy Nuclei (%) for this one >= 10%? CCOc1cc(C(=O)N2CCC(N3CCN(C)CC3)CC2)ccc1Nc1ncc2c(n1)N(C1CCCC1)c1ccccc1C(=O)N2C
yes (1)

* * *

The entries below come with measured Population Hoechst High Intensity Objects (%) values attached.
Tested on: HEK-293T
Assay: Multiplex assay against HEK293T
Type: toxicity, cell-based
Details: human, 12 h, 10 µM, compound concentration 10 uM, replicate 2
Please state the figure in %; there is no need to write the unit.

Below, each entry is followed by its recorded Population Hoechst High Intensity Objects (%) result.
> print(dat)
                                   compound  system.under.test  recorded.value
1  COc1ccc(S(=O)(=O)N(CCO)c2ccccc2CN(C)C/C=C/c2ccc(Cl)cc2)cc1.O=P(O)(O)O           HEK-293T               3
2  COc1cc2ncnc(Nc3ccc(F)c(Cl)c3)c2cc1NC(=O)/C=C/CN1CCCCC1 [DACOMITINIB ANHYDROUS]           HEK-293T               2
3  O=C(Nc1ccc(-n2nc(-c3cccnc3)cc2C(F)(F)F)cn1)c1ccc(-c2ccccc2)c(F)c1           HEK-293T               3

Query compound follows.
# Population Hoechst High Intensity Objects (%) of Cn1nc(C(=O)NCc2ccc(C(=O)O)cc2)cc1-c1ccc2[nH]ccc2c1 = 1

The measured values listed here are drawn from ChEMBL document CHEMBL4689842.
